pEC50 overview
- System: HRV-14
- measurement description: Antirhinoviral H1-HeLa cell culture assay (cell protection, XTT), HRV-14
- Type: cell-based, human rhinovirus
- condition set: Rhinovirus B, HRV14, H1-HeLa, 48 h, read-out: Cell Protection EC50
# log scale: pEC50 equals minus log10 of the concentration in mol/L

Here's what some known entries look like.
[[record]]
structure_string = "CCOC(=O)/C=C/[C@H](C[C@@H]1CCNC1=O)NC(=O)c1cc2cc(Br)ccc2[nH]1"
system_tested = "HRV-14"
recorded_number = 5.36

[[record]]
structure_string = "CCOC(=O)/C=C/[C@H](C[C@@H]1CCNC1=O)NC(=O)/C=C/c1ccc(F)c(Br)c1"
system_tested = "HRV-14"
recorded_number = 6.20

[[record]]
structure_string = "CCOC(=O)/C=C/[C@H](C[C@@H]1CCNC1=O)NC(=O)/C=C/c1ccc(C)cc1"
system_tested = "HRV-14"
recorded_number = 5.56

[[record]]
structure_string = "CCOC(=O)/C=C/[C@H](C[C@@H]1CCNC1=O)NC(=O)C1=Cc2ccccc2OC1"
system_tested = "HRV-14"
recorded_number = 5.92

[[record]]
structure_string = "CCOC(=O)/C=C/[C@H](C[C@@H]1CCNC1=O)NC(=O)COc1ccc(Cl)c(Cl)c1"
system_tested = "HRV-14"
recorded_number = 5.21

[[record]]
structure_string = "CCOC(=O)/C=C/[C@H](C[C@@H]1CCNC1=O)NC(=O)/C=C/c1cccc(Br)c1"
system_tested = "HRV-14"
recorded_number = 5.85


From here, focus on the item given below.
Challenge: Request: pEC50, test system HRV-14, entry `CCOC(=O)/C=C/[C@H](C[C@@H]1CCNC1=O)NC(=O)C1=Cc2cc(Br)ccc2OC1`
Response given: 6.76
